# CONDITION DESCRIPTION: in ethyl acetate, 313.15 K
MEASUREMENT KIND: solubility (mole fraction)
// no unit string in output, number only

Query: Which solubility (mole fraction) reading was recorded for the compound C=C1C[C@]23C[C@@]1(O)CC[C@H]2[C@@]12C=C[C@H](O)[C@@](C)(C(=O)O1)[C@H]2[C@@H]3C(=O)O ?
Reply: 0.203

====

# CONDITION DESCRIPTION: in n-butanol, 323.15 K
MEASUREMENT KIND: solubility (mole fraction)
Output spec: single numeric token, no unit.

Query: For the compound C=C1C[C@]23C[C@@]1(O)CC[C@H]2[C@@]12C=C[C@H](O)[C@@](C)(C(=O)O1)[C@H]2[C@@H]3C(=O)O , what solubility (mole fraction) is on record?
Reply: 0.0173
